biological target: Histamine H4 receptor (Homo sapiens, UniProt Q9H3N8); test: Agonist activity at histamine H4 receptor (unknown origin) expressed in human U2OS cells increase in beta-arrestin2 recruitment after 2 hrs by luminescence assay; format: cell-based
Sequence (Q9H3N8 whole entry): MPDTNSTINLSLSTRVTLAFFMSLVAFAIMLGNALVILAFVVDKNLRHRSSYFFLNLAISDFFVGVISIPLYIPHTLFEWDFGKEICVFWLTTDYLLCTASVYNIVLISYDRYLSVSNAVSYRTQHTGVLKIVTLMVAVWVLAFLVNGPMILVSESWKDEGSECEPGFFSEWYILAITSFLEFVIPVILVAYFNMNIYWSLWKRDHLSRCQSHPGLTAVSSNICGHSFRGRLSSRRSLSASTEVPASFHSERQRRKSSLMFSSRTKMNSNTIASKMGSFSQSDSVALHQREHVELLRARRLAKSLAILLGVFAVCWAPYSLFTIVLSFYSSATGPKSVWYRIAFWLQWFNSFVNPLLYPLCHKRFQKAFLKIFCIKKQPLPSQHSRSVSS
Observation Type: pEC50
Lab note: report pEC50 as minus log10 of the concentration in molar units, number only.

CN1CCN(c2nc3cc(Cl)c(Cl)cc3[nH]c2=O)CC1 :: 7.60
N=C(NCc1ccccc1Cl)SCCCc1c[nH]cn1 :: 7.80
CN1CCN(C(=O)c2cc3cc(Cl)cc([N+](=O)[O-])c3[nH]2)CC1 :: 6.00

# pEC50 lookup, item CN1CCN(c2cc(NCc3ccccc3)nc(N)n2)CC1
7.20

# pEC50 lookup, item c1nc(CCn2cc(CC3CCCCC3)nn2)c[nH]1
6.00

# pEC50 lookup, item N=C(NCc1cccc(Cl)c1)SCCCc1c[nH]cn1
7.40
